Source of measurements: patent US20240254119A1

Target of assay: wtKIT (Homo sapiens, UniProt P10721)
Construct: 1888289AM in the reaction mixtures
Sequence (P10721 26-976): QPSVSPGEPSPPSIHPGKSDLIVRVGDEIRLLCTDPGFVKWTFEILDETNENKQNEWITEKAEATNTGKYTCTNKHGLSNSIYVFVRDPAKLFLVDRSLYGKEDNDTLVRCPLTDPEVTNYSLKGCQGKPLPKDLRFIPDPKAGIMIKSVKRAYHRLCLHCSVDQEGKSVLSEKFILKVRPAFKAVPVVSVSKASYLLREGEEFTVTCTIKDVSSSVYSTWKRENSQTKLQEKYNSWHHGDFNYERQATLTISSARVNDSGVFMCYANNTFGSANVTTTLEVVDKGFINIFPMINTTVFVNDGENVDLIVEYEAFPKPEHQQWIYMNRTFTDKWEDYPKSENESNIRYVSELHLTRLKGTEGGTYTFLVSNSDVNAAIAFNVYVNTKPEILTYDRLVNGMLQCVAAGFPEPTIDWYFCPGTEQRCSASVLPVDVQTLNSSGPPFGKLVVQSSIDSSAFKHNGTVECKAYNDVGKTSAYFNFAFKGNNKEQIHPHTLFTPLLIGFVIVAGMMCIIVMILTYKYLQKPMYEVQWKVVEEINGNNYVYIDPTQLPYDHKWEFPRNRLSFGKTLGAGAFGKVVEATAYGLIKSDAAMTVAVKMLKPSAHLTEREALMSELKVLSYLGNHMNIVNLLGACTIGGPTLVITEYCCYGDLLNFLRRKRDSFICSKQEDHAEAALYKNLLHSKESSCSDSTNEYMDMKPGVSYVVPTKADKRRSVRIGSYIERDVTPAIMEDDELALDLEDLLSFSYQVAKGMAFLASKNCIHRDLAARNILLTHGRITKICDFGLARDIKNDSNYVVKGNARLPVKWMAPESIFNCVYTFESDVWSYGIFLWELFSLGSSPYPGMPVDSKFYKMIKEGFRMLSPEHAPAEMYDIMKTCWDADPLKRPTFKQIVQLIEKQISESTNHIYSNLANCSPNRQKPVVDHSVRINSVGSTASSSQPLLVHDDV
Method description: HTRF biochemical assay, wtKIT (phosphorylation of a peptide substrate)
Applied conditions: Table 4
Listed here are compounds together with their documented IC50.
Measure: IC50

# Compound, Result
data = [
    ("COC(=O)N1CC(c2nc(-c3ccc(C)c(NC(=O)c4cnn5ccc(C#N)cc45)c3)no2)C1", "50 to 500 nM"),
    ("Cc1ccc(-c2noc(C(F)C3CC3)n2)cc1NC(=O)c1cnc2ccccn12 (racemic)", "≤ 50 nM"),
    ("Cc1ccc(-c2noc(-c3cccnc3)n2)cc1NC(=O)c1cnc2cc(COCCO)ccn12", "50 to 500 nM"),
    ("Cc1ccc(-c2noc([C@H]3C[C@@H]3F)n2)cc1NC(=O)c1cnc2cc(OC(C)C)ccn12", "≤ 50 nM"),
    ("CCc1nc(-c2ccc(C)c(NC(=O)c3cnc4cc(F)ccn34)c2)no1", "≤ 50 nM"),
    ("Cc1ccc(-c2ncon2)cc1NC(=O)c1cnn2cc(-c3ccn(C)n3)ccc12", "≤ 50 nM"),
    ("Cc1nc(-c2ccc(C)c(NC(=O)c3cnc4ccc(N5CCOCC5)cn34)c2)no1", "≤ 50 nM"),
    ("Cc1nc(-c2ccc(C)c(NC(=O)c3cnc4cc(C5COC5)ccn34)c2)no1", "50 to 500 nM"),
]

###

Target of assay: BCRP (BCRP-MDCKII monolayer) (Homo sapiens, UniProt Q9UNQ0)
Construct: host or cells: MDCKII (canine kidney) cells
Sequence (Q9UNQ0 1-655): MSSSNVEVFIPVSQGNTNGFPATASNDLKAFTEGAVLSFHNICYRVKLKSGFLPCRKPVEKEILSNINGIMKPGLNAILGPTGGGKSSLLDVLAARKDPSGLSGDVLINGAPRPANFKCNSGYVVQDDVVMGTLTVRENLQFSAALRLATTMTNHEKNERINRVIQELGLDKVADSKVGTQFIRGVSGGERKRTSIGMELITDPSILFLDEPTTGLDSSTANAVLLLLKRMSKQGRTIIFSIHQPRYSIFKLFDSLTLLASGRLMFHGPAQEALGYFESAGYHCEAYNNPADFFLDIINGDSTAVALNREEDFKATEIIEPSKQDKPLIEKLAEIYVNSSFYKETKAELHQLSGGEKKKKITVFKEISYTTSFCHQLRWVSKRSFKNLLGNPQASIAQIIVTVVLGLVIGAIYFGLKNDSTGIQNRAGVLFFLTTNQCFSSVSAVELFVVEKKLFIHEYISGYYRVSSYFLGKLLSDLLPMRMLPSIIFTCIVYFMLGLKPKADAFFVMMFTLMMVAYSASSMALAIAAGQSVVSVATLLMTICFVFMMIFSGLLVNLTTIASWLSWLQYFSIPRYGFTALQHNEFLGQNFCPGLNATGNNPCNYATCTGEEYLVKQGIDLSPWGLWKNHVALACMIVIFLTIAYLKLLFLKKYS
Method description: MDCKII-BCRP bidirectional transport assay
Type: in vitro ADME
Listed here are molecules together with their documented MDCK-BCRP: Efflux Ratio.
Measure: MDCK-BCRP: Efflux Ratio

# Molecule, Target of assay, Measure, Result number
data = [
    ("COC12CC(c3nc(-c4ccc(C)c(NC(=O)c5cnc6ccccn56)c4)no3)(C1)C2 [Compound I-368]", "BCRP (BCRP-MDCKII monolayer) (Homo sapiens, UniProt Q9UNQ0)", "MDCK-BCRP: Efflux Ratio", 1.09),
    ("Cc1ccc(-c2noc(C3CCN(C(=O)OC(C)(C)C)C3)n2)cc1NC(=O)c1cnc2ccccn12 (racemic) [Compound I-399]", "BCRP (BCRP-MDCKII monolayer) (Homo sapiens, UniProt Q9UNQ0)", "MDCK-BCRP: Efflux Ratio", 2.78),
    ("COC(=O)N1CC(c2nc(-c3ccc(C)c(NC(=O)c4cnn5ccc(Br)cc45)c3)no2)C1 [Compound I-280]", "BCRP (BCRP-MDCKII monolayer) (Homo sapiens, UniProt Q9UNQ0)", "MDCK-BCRP: Efflux Ratio", 2.55),
    ("Cc1ccc(-c2noc([C@H]3CCN(C(=O)OC(C)(C)C)C3)n2)cc1NC(=O)c1cnc2ccccn12 [Compound I-398]", "BCRP (BCRP-MDCKII monolayer) (Homo sapiens, UniProt Q9UNQ0)", "MDCK-BCRP: Efflux Ratio", 1.33),
    ("CNC(=O)N1CC(c2nc(-c3ccc(C)c(NC(=O)c4cnc5ccccn45)c3)no2)C1 [Compound I-282]", "BCRP (BCRP-MDCKII monolayer) (Homo sapiens, UniProt Q9UNQ0)", "MDCK-BCRP: Efflux Ratio", 28.1),
    ("COC(=O)N1CC(c2nc(-c3ccc(C)c(NC(=O)c4cnc5cc(OCCO)ccn45)c3)no2)C1 [Compound I-264]", "BCRP (BCRP-MDCKII monolayer) (Homo sapiens, UniProt Q9UNQ0)", "MDCK-BCRP: Efflux Ratio", 24.2),
    ("Cc1ccc(-c2noc(C3CC(Oc4ccccc4)C3)n2)cc1NC(=O)c1cnc2ccccn12 (stereo not drawn) [Compound I-348]", "BCRP (BCRP-MDCKII monolayer) (Homo sapiens, UniProt Q9UNQ0)", "MDCK-BCRP: Efflux Ratio", 2.37),
    ("Cc1nc(-c2ccc(C)c(NC(=O)c3cnc4cc(C(F)F)ccn34)c2)no1 [Compound I-134]", "BCRP (BCRP-MDCKII monolayer) (Homo sapiens, UniProt Q9UNQ0)", "MDCK-BCRP: Efflux Ratio", 2.12),
    ("Cc1ccc(-c2noc(C3(C)CC(F)(F)CN3)n2)cc1NC(=O)c1cnc2ccccn12 (racemic) [Compound I-328]", "BCRP (BCRP-MDCKII monolayer) (Homo sapiens, UniProt Q9UNQ0)", "MDCK-BCRP: Efflux Ratio", 4.55),
    ("COCCOCc1ccn2c(C(=O)Nc3cc(-c4noc([C@H]5C[C@@H]5F)n4)ccc3C)cnc2c1 [Compound I-84]", "BCRP (BCRP-MDCKII monolayer) (Homo sapiens, UniProt Q9UNQ0)", "MDCK-BCRP: Efflux Ratio", 2.28),
    ("COCC1(c2nc(-c3ccc(C)c(NC(=O)c4cnc5ccccn45)c3)no2)CC(F)(F)C1 [Compound I-378]", "BCRP (BCRP-MDCKII monolayer) (Homo sapiens, UniProt Q9UNQ0)", "MDCK-BCRP: Efflux Ratio", 0.77),
    ("O=C(Nc1cc(-c2noc([C@H]3C[C@@H]3F)n2)ccc1Br)c1cnc2ccccn12 [Compound I-340]", "BCRP (BCRP-MDCKII monolayer) (Homo sapiens, UniProt Q9UNQ0)", "MDCK-BCRP: Efflux Ratio", 0.28),
    ("COC1(C(F)F)CC(c2nc(-c3ccc(C)c(NC(=O)c4cnc5ccccn45)c3)no2)C1 (stereo not drawn) [Compound I-325]", "BCRP (BCRP-MDCKII monolayer) (Homo sapiens, UniProt Q9UNQ0)", "MDCK-BCRP: Efflux Ratio", 1.39),
    ("COc1ccn2c(C(=O)Nc3cc(-c4noc(CC5CC(F)(F)C5)n4)ccc3C)cnc2c1 [Compound I-91]", "BCRP (BCRP-MDCKII monolayer) (Homo sapiens, UniProt Q9UNQ0)", "MDCK-BCRP: Efflux Ratio", 1.76),
    ("Cc1ccc(-c2noc(CC(C)(C)O)n2)cc1NC(=O)c1cnc2ccccn12 [Compound I-336]", "BCRP (BCRP-MDCKII monolayer) (Homo sapiens, UniProt Q9UNQ0)", "MDCK-BCRP: Efflux Ratio", 19.9),
]
